# Tested on: HL-60(TB) leukemia
# test-protocol: NCI tumour cell line growth inhibition, 48 h; in the data active means GI50 below about 0.43 µM; inactive means the rest
Possible outcomes: active, inactive

CCSc1nc(=S)[nH]c2[nH]ncc12 : inactive
COc1cc(/C=C/C(=O)CC(=O)/C=C/c2ccc(OC(=O)CCNC34CC5CC(CC(C5)C3)C4)c(OC)c2)ccc1OC(=O)CCNC12CC3CC(CC(C3)C1)C2 : inactive
CCN(CC)CCCN1C(=O)c2c(c(C)c3c(oc4cc(O)ccc43)c2C)C1=O : inactive
O=C(/C=C/c1ccc2c(c1)OCO2)c1ccccc1 : inactive
O=[N+]([O-])c1ccccc1/C=C/C=C1c2ccccc2-c2ccccc21 : inactive
COc1cc2c3c(n(CCCn4ccnc4)c(=O)c2cc1OC)-c1ccccc1C3=O : active
O=C(Nc1nc(-c2ccc(Cl)cc2)cs1)c1ccc(O)c(O)c1 : inactive
O=S(=O)(NCCNc1cc(-c2cn(-c3ccccc3)nc2-c2cccc(O)c2)ccn1)c1ccc(F)cc1 : inactive
COc1ccc(C(=O)c2ccc(OC)cc2OC)cc1 : inactive

====

# Tested on: MOLT-4 leukemia
# test-protocol: NCI tumour cell line growth inhibition, 48 h
observable: TGI (µM)

Cc1nc2c(n1CCCl)C(=O)c1ccccc1C2=O : 78
Cc1ccc(-c2nc3nc(-c4ccc(Cl)cc4)nc(N4CCCNCC4)c3o2)cc1 : 3.72
COc1cc(C(=O)O)ccc1NC(=O)[C@@H]1N[C@@H](CC(C)(C)C)[C@](C#N)(c2ccc(Cl)cc2F)[C@H]1c1cccc(Cl)c1F : 2.07
O=C(/C=C/C12c3ccccc3C(c3ccccc31)C1C(=O)NC(=O)C12)c1ccco1 (centres undefined) : 7.63
CN(C)CCNc1c([N+](=O)[O-])cc2c3c(cccc13)C(=O)N(CCN(C)C)C2=O : 3.09
COc1cc2c(cc1OCCCCCN1CCN(c3cc(=O)oc4c(C)c(OC)ccc34)CC1)N=C[C@@H]1CCCN1C2=O : 0.0106
COc1ccc2c(c1)C(=O)c1c-2c(N2CCN(C(=O)CN(C)C)CC2)nc2ccccc12 : 24.8
C[C@@H](Oc1cc(-c2cnn(C3CC4(CCNCC4)C3)c2)cnc1N)c1c(F)ccc(Cl)c1Cl : 5.82
CCOC(=O)c1c(-c2ccc(Cl)cc2)c(C#N)c(=S)n(C2OC(CO)C(O)C(O)C2O)c1-c1ccccc1 (centres undefined) : 46.7

====

# Tested on: CCRF-CEM leukemia
# test-protocol: NCI tumour cell line growth inhibition, 48 h
observable: TGI (µM)

CCC12CC[C@H](C#N)N3CCc4c(n(c5ccccc45)C(=O)C1)C32 (stereo partly specified) : 44.3
CC(=O)Oc1cc2c(=O)oc3c(OC(C)=O)c(OC(C)=O)c(OC(C)=O)c4c(=O)oc(c1OC(C)=O)c2c34 : 63.3
CC1=C(N(C)C)C(=O)c2nc3n(c2C1=O)CCC3OC(N)=O (stereo unspecified) : 42.8
CCCCC1(OC(=O)CCC(=O)O)CCC2(CCC(C)C(C/C=C(C)/C=C/C(O)C(C)/C=C/C(=O)O)O2)OC1CC/C(C)=C/C(=O)O (stereo unspecified) : 27.4
CN1CCN(CCCOc2ccc3ncnc(Nc4ccc(Oc5cccc(C(F)(F)F)c5)c(Cl)c4)c3c2)CC1 : 7.46
COc1ccc2c(c1)/C(=C/c1c(-c3ccc(C)cc3)nc3sc(C)cn13)C(=O)N2 : 80.3
CCOP(=O)(CCC(O)CNc1nc(N)nc(Cl)c1N=Nc1ccc(Cl)cc1)OCC (stereo unspecified) : 46.5

====

# System: T-47D breast
# test-protocol: NCI tumour cell line growth inhibition, 48 h; in the data active = GI50 below about 0.43 µM; inactive = the rest
Possible outcomes: active, inactive

Cc1cc(S(=O)(=O)/N=C(\N)n2nc(C)c(C)c2C)c(SCc2ccccc2)cc1Cl : inactive
C/C(=C\c1ccn(-c2ccc(N)cc2C(F)(F)F)n1)[C@@H]1C[C@@H]2O[C@]2(C)CCC[C@H](C)[C@H](O)[C@@H](C)C(=O)C(C)(C)[C@@H](O)CC(=O)O1 : inactive
COc1cc2c3c(n(CCCn4ccnc4)c(=O)c2cc1OC)-c1ccccc1C3=O : active
CC(=O)C1=C(O)C2(O)C(=O)c3c(c(C)c4ccc(C)c(O)c4c3O)CC2C(N)C1=O (stereo not drawn) : inactive
O=C1CC(N2C(=O)/C(=C/C(Cl)=C\c3ccc([N+](=O)[O-])cc3)SC2=S)C(=O)N1c1ccc(Cl)cc1 (stereo not drawn) : inactive
COc1ccc(C(=O)c2ccc(OC)cc2OC)cc1 : inactive
COc1cc2c(cc1OCCCCCN1CCN(c3cc(=O)oc4c(C)c(OC)ccc34)CC1)N=C[C@@H]1CCCN1C2=O : active
N#C/C(=C\c1ccc(Br)cc1)n1nnc2cc(F)c(F)cc21 : inactive

====

# System: UO-31 renal
# test-protocol: NCI tumour cell line growth inhibition, 48 h
observable: TGI (µM)

O=C1C=CC(=O)N1c1ccc2c(c1)Cc1cc(NC(=O)C(F)(F)F)ccc1-2 : 28.4
C=C(CO)[C@H]1CC/C(C)=C/CC/C(C)=C/C/C=C(\C)[C@H](O)C1 : 93
Cc1c2c(cc3c1[nH]c1ccccc13)C(c1ccc(F)cc1)=NCC2 : 4.08
CC(=O)CCC(=O)CC(O)(C(F)(F)F)C(F)(F)F : 27.8
O=C1OC(c2ccccc2)(c2ccccc2)CC1CN1CCOCC1 (stereo unspecified) : 99.4
O=C1C(Br)=C(c2ccccc2)C(c2ccccc2)=C1c1ccccc1 : 12.8

====

Listed next: entries and their corresponding GI50.
# System: T-47D breast
# test-protocol: NCI tumour cell line growth inhibition, 48 h
*1 amine or outer side, *2 acyl side, *3 side chain or, on linkers, in order; H or OH if unused. Where a SMILES comes first, the peptide text is derived from it. CO = O=C([*:1])[*:2]
observable: GI50

CCCN1C(=O)/C(=C/c2ccc(O)cc2)SC1=Nc1ccccc1 : 22.5 µM
O=[N+]([O-])c1ccccc1/C=C/C=C1c2ccccc2-c2ccccc21 : > 100 µM
CNC(=O)c1ccc(Nc2nc(OC3CCCC3)c3c(-c4ccc5nc(C)oc5c4)c[nH]c3n2)c(OC)c1 : 0.907 µM
CC(C)C(NC(=O)C(CCCN=C(N)N)NC(=O)NC(Cc1ccccc1)C(=O)O)C(=O)NC(C=O)CCCN=C(N)N (stereo not drawn) ({Phe-CO}-Arg-Val-Arg-aldehyde; configuration not given here) : > 5 µM

====

# System: NCI-H522 lung
# test-protocol: NCI tumour cell line growth inhibition, 48 h
Listed next: entries and their corresponding TGI.
observable: TGI

C/C(=N\[N+](C)(C)C)C(c1ccccc1)C1(c2ccccc2)C(c2ccccc2)=C1c1ccccc1 (stereo not given) : > 100 µM
Nc1nc(F)nc2c1ncn2C1OC(COP(=O)(O)O)C(O)C1O (stereo not given) : 740 µM
O=C1CN2CCC1C/C2=C\c1ccnc2c(Cl)cccc12 (stereo not given) : > 100 µM
Cc1ccc(-c2cnc(NC3OC(COC(=O)c4ccccc4)C(OC(=O)c4ccccc4)C(OC(=O)c4ccccc4)C3OC(=O)c3ccccc3)s2)cc1 (stereo not given) : > 100 µM
CCOC(=O)CCc1c(C)c2ccc(O)cc2oc1=O : > 100 µM

====

# Test system: DMS 114 small cell lung
# test-protocol: NCI tumour cell line growth inhibition, 48 h
observable: TGI

C/C=C/CP(=O)(c1ccccc1)c1ccccc1 : > 100 µM
NC(=S)Nc1nnc(-c2ccc(-c3nnc(NC(N)=S)o3)cc2)o1 : > 100 µM
COC1CCC(OS(C)(=O)=O)CO1 (stereo not drawn) : > 100 µM

====

# System: M14 melanoma
# test-protocol: NCI tumour cell line growth inhibition, 48 h
observable: GI50

CN(C)c1ccc2[nH]c(O)c(C=Nc3ccc(S(N)(=O)=O)cc3)c2c1 : > 25 µM
COc1cc(-c2ccc(-[n+]3nc(-c4ccc([N+](=O)[O-])cc4)nn3-c3ccc([N+](=O)[O-])cc3)c(OC)c2)ccc1-[n+]1nc(-c2ccc([N+](=O)[O-])cc2)nn1-c1ccc([N+](=O)[O-])cc1 : 14.9 µM
O=C(/C=C/c1ccc2c(c1)OCO2)c1ccccc1 : 13.2 µM
CC(=O)[CH-]C(C)=O.CC(=O)[CH-]C(C)=O.CC(=O)[CH-]C(C)=O.[Cl-].[Hf+4] : > 100 µM
COc1cc(C(=O)O)ccc1NC(=O)[C@@H]1N[C@@H](CC(C)(C)C)[C@](C#N)(c2ccc(Cl)cc2F)[C@H]1c1cccc(Cl)c1F : 3.18 µM
CO[C@H]1C[C@@H]2CC[C@@H](C)[C@@](O)(O2)C(=O)C(=O)N2CCCC[C@H]2C(=O)O[C@H]([C@H](C)C[C@@H]2CC[C@@H](OC(=O)C(C)(CO)CO)[C@H](OC)C2)CC(=O)[C@H](C)/C=C(\C)[C@@H](O)[C@@H](OC)C(=O)[C@H](C)C[C@H](C)/C=C/C=C/C=C/1C : 16 µM
Cc1cc(S(=O)(=O)/N=C(\N)n2nc(C)c(C)c2C)c(SCc2ccccc2)cc1Cl : > 100 µM
CCCCCCCCO/N=C\c1c2c(O)c3c(O)c(C)c4c(c3c1O)C(=O)C(C)(O/C=C\C(OC)C(C)C(OC(C)=O)C(C)C(O)C(C)C(O)C(C)/C=C\C=C(\C)C(=O)N2)O4 (configuration not stated) : 1.57 µM
CCC(=O)Nc1ccc2c(c1)CN1C(=O)c3ccccc3C1=N2 : > 100 µM
COc1ccc2c(c1)/C(=C/c1c(-c3ccc(C)cc3)nc3sc(C)cn13)C(=O)N2 : 13.2 µM
CN1CCN(CCCOc2ccc3ncnc(Nc4ccc(Oc5cccc(C(F)(F)F)c5)c(Cl)c4)c3c2)CC1 : 1.87 µM
Cc1cc(Nc2nc(N3CCOCC3)nc3ccccc23)n[nH]1 : 7.14 µM
